Molecular target: KRAS G12V (Homo sapiens (Human), UniProt P01116+P62937, G12V)
Sequence (P01116-2 other isoform, or with tags, fused parts or gaps G12V): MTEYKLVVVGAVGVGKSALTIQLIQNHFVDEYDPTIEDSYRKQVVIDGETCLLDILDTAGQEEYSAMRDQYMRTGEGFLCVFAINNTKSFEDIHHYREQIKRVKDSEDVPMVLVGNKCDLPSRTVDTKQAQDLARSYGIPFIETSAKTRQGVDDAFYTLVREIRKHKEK
Sequence (P62937 whole entry): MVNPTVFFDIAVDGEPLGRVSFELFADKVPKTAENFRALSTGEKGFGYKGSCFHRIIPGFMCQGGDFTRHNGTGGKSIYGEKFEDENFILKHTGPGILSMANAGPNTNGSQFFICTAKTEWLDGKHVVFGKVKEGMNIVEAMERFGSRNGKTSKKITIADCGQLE
Assay: Ras-Raf (BRAF RBD) disruption / FRET / MOA assay, KRAS G12V
Format: biochemical
Details: read-out: IC50* KRAS G12V FRET data
Measurement type: IC50

Examples with their reported IC50 follow.
{"Compound": "CC#CC(=O)N1CC2(CCN2C(=O)N(C)[C@H](C(=O)N[C@H]2Cc3nc(cs3)-c3ccc4c(c3)c(c(-c3cccnc3[C@H](C)OC)n4CC)CC(C)(C)COC(=O)[C@@H]3CCCN(N3)C2=O)C(C)C)C1 (atropisomer, axis not shown) [Example A655]", "IC50": "100 to 1000 nM"}
{"Compound": "CCn1c(-c2cccnc2[C@H](C)OC)c2c3cc(ccc31)-c1cccc(c1)C[C@H](NC(=O)[C@H](C(C)C)N(C)C(=O)[C@H]1CCN(C(=O)/C=C/CF)C1)C(=O)N1CCC[C@H](N1)C(=O)OCC(C)(C)C2 [Example A449]", "IC50": "1000 to 10000 nM"}
{"Compound": "CCn1c(-c2cccnc2[C@H](C)OC)c2c3cc(ccc31)N1CCO[C@@](C)(C[C@H](NC(=O)[C@H](C(C)C)N(C)C(=O)C3(F)CCN(C(=O)C#CC(C)(C)N(C)C)CC3)C(=O)N3CCC[C@H](N3)C(=O)OCC(C)(C)C2)C1 [Example A550]", "IC50": "100 to 1000 nM"}

For reference, reported IC50 for C=CC(=O)N1CC(O[C@H](C(=O)N[C@H]2Cc3cc(O)cc(c3)-c3ccc4c(c3)c(c(-c3cccnc3COC)n4CC)CC(C)(C)COC(=O)[C@@H]3CCCN(N3)C2=O)C(C)C)C1 [Example A235] stands at > 10000 nM

* * *

Molecular target: K-Ras G12C (Homo sapiens (Human), UniProt P01116+P62937, G12C)
Sequence (P01116-2 other isoform, or with tags, fused parts or gaps G12C, one chain of several): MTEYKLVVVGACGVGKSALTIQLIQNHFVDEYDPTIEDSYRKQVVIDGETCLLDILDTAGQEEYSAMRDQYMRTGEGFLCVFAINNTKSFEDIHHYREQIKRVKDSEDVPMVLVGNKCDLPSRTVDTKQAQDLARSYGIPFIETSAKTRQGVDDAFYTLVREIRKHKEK
Assay: Ras-Raf (BRAF RBD) disruption / FRET / MOA assay, KRAS G12C
Format: biochemical
Conditions: KRAS G12C; Ras-Raf disruption/FRET/MOA assay; read-out: IC50* KRAS G12C FRET data
IC50 by entry:

Reference set, count: 3
{"Molecule": "C=CC(=O)N1CC[C@H](C(=O)N(C)[C@H](C(=O)N[C@H]2Cc3cc(O)cc(c3)-c3ccc4c(c3)c(c(-c3cccnc3)n4[C@H](C)C#N)CC(C)(C)COC(=O)[C@@H]3CCCN(N3)C2=O)C(C)C)C1", "Measurement type": "IC50", "Value reported": "10 to 100 nM"}
{"Molecule": "C=CC(=O)N1CC[C@H](C(=O)N(C)[C@H](C(=O)N[C@H]2Cc3cc(cc(C(F)F)c3)-c3ccc4c(c3)c(c(-c3cccnc3[C@H](C)OC)n4CC)CC(C)(C)COC(=O)[C@@H]3CCCN(N3)C2=O)C(C)C)C1 (atropisomer, axis not shown)", "Measurement type": "IC50", "Value reported": "100 to 1000 nM"}
{"Molecule": "C=CC(=O)N1CC[C@H](C(=O)N(C)[C@H](C(=O)N[C@H]2Cc3cccc(c3)-c3ccc4c(c3)c(c(-c3cccnc3[C@H](C)OC)n4CC)CC(C)(C)COC(=O)[C@@H]3CCCN(N3)C2=O)C2CC2)C1 (atropisomer, axis not shown)", "Measurement type": "IC50", "Value reported": "100 to 1000 nM"}

// next item, IC50 requested
Lab note: CCn1c(-c2cccnc2[C@H](C)OC)c2c3cc(ccc31)-c1cc(O)cc(c1)C[C@H](NC(=O)[C@H](C(C)C)N(C)C(=O)[C@H]1CCN(C(=O)C#CCN3[C@@H](C)COC[C@@H]3C)C1)C(=O)N1CCC[C@H](N1)C(=O)OCC(C)(C)C2 (atropisomer, axis not shown) gave IC50 of < 10 nM
